Reported Human Protein binding (%free) is given for each of the following molecules.
# Tested on: human plasma protein
// units = %free; emit number, no label

Study these solved cases before continuing.
smilescode=COc1ccc(S(=O)(=O)N2CCNC[C@@H]2C(=O)NO)cc1.Cl propertylabel="Human Protein binding (%free)" quantityunit=%free valuereported=91
smilescode=COc1ccc(S(=O)(=O)N2CCN(S(=O)(=O)c3ccc(OC)cc3)[C@@H](C(=O)NO)C2)cc1 propertylabel="Human Protein binding (%free)" quantityunit=%free valuereported=30
smilescode=COc1ccc(S(=O)(=O)N2CCN(S(=O)(=O)c3c(C)noc3C)C[C@@H]2C(=O)NO)cc1 propertylabel="Human Protein binding (%free)" quantityunit=%free valuereported=51
smilescode=COCCN1CCN(S(=O)(=O)c2ccc(OC)cc2)[C@@H](C(=O)NO)C1 propertylabel="Human Protein binding (%free)" quantityunit=%free valuereported=82

// moving on: another record for Human Protein binding (%free)
The reported Human Protein binding (%free) value, human plasma protein, for `COc1ccc(S(=O)(=O)N2CCN(S(=O)(=O)C3CC3)C[C@@H]2C(=O)NO)cc1` reads 66
